Tested on: HCT-116 colon
Test: NCI tumour cell line growth inhibition, 48 h
The molecules listed here are annotated with their TGI.

See these solved cases before continuing.
- Molecule: "N#Cc1c(N)nc(NCc2ccccc2)c(C#N)c1-c1ccc(Cl)cc1Cl"
  TGI: "> 100 µM"
- Molecule: "N#CCN(CC#N)C1CC=CCC1N(CC#N)CC#N (stereo not drawn)"
  TGI: "> 100 µM"

Which value of TGI has been reported for Clc1ccccc1C(Nc1ncccn1)Nc1ncccn1 in the records?
> 100 µM

----------
System: SNB-75 CNS
Test: NCI tumour cell line growth inhibition, 48 h
Assay Endpoint: TGI

See these solved cases before continuing.
- Compound: "Cc1ccc(NC(=O)/C(=N/N(C)C)C(C2OC(=O)c3ccccc32)[N+](=O)[O-])cc1 (centres undefined)"
  TGI: "> 100 µM"
- Compound: "O=[N+]([O-])/C(C(Cl)=C(Cl)Cl)=C(\\N1CCCCC1)n1nnc2ccccc21"
  TGI: "> 65.5 µM"
- Compound: "O=C(Nc1sccc1S(=O)(=O)c1ccccc1)c1ccccc1"
  TGI: "> 100 µM"

Which value of TGI has been reported for C=CCOc1ccccc1C1(O)c2ccccc2C2=NCCCN21 (centres undefined) in the records?
> 100 µM

----------
Test system: DLD-1 colon
Test: NCI tumour cell line growth inhibition, 48 h
Assay Endpoint: TGI

See these solved cases before continuing.
- Compound: "NCCCCCCNCc1cccc2ccccc12"
  Assay Endpoint: "TGI"
  Reading: "> 100 µM"
- Compound: "COC(=O)/C=c1\\s/c(=C\\C(=O)OC)c2ccccc12"
  Assay Endpoint: "TGI"
  Reading: "> 100 µM"
- Compound: "O=c1[nH]c(=O)n(C2OC(CO)C(O)C2O)cc1OCC(F)(F)F (stereo unspecified)"
  Assay Endpoint: "TGI"
  Reading: "> 100 µM"
- Compound: "COc1cccc2c1C(=O)OC2c1cccc2ccccc12 (stereo unspecified)"
  Assay Endpoint: "TGI"
  Reading: "> 100 µM"
- Compound: "COc1ccc(C2C3CCCC(C3=O)C(c3ccc(OC)cc3)N2N=O)cc1 (stereo unspecified)"
  Assay Endpoint: "TGI"
  Reading: "> 100 µM"

Could you now consider this next compound?
Which value of TGI has been reported for CCOC(=O)/C(=C/c1ccc(N(CCC#N)CCC#N)cc1C)NC(=O)/C=C/c1ccccc1 in the records?
> 100 µM

----------
System: HCT-116 colon
Test: NCI tumour cell line growth inhibition, 48 h
Assay Endpoint: TGI

See these solved cases before continuing.
- Compound: "CC(=O)NNc1nc(C)c(C(=O)NNC(=O)C(=O)Nc2ccc([N+](=O)[O-])cc2C#N)s1"
  Assay Endpoint: "TGI"
  Reading: "> 100 µM"
- Compound: "CNS(=O)(=O)OCC1OC(n2cnc3c(N)ncnc32)C(O)C1O (stereo unspecified)"
  Assay Endpoint: "TGI"
  Reading: "> 100 µM"
- Compound: "CC1NC(=O)C2=C1C(N)=NC(=O)C2 (stereo unspecified)"
  Assay Endpoint: "TGI"
  Reading: "> 100 µM"
- Compound: "CC(C)(C)OC(=O)CN1CCN(CC(=O)N2CCN(C(=O)OCc3ccccc3)CC2)CCN(CC(=O)OC(C)(C)C)CCN(CC(=O)N2CCN(C(=O)OCc3ccccc3)CC2)CC1"
  Assay Endpoint: "TGI"
  Reading: "> 38 µM"

Which value of TGI has been reported for CCOC(=O)Cc1cnc(NC(NC(=O)CC)(C(F)(F)F)C(F)(F)F)s1 in the records?
> 100 µM

Which value of TGI has been reported for Cc1nc2sccn2c1C(=O)NC(=O)Nc1ccc(Cl)cc1 in the records?
> 100 µM

----------
Test system: SF-268 CNS
Test: NCI tumour cell line growth inhibition, 48 h
Assay Endpoint: TGI

See these solved cases before continuing.
- Line Notation: "Cn1c(=S)c2[nH]c(SCCN3C(=O)c4ccccc4C3=O)nc2n(C)c1=O"
  TGI: "> 100 µM"
- Line Notation: "CCCN(CCC)c1c([N+](=O)[O-])cc(C(=O)N(CCO)CCO)cc1[N+](=O)[O-]"
  TGI: "> 100 µM"

Which value of TGI has been reported for CCOC(=O)c1c(N2CCCC2)ncn(C)c1=S in the records?
> 100 µM

----------
Tested on: MALME-3M melanoma
Test: NCI tumour cell line growth inhibition, 48 h
Assay Endpoint: TGI

- Compound: "Cn1c(=O)c2[nH]cnc2n(CC(N)=O)c1=O"
  TGI: "> 100 µM"
- Compound: "O=c1[nH]c(=O)n(C2CC(O)C(CO)O2)cc1C#Cc1ccc(F)cc1 (stereo not drawn)"
  TGI: "> 100 µM"

Could you now consider this next compound?
Which value of TGI has been reported for O=C(C/C(CCC(=O)N(Cc1ccccc1)Cc1ccccc1)=N/Nc1ccc([N+](=O)[O-])cc1[N+](=O)[O-])c1ccccc1 in the records?
> 100 µM

----------
Tested on: EKVX NSCLC
Test: NCI tumour cell line growth inhibition, 48 h
The compounds listed here are annotated with their TGI.

See these solved cases before continuing.
- Compound: "COc1ccccc1NS(=O)(=O)c1ccc2oc(SC(C)C)nc2c1"
  TGI: "78.7 µM"
- Compound: "NC(=Nc1cccc(Cl)c1)c1ccccc1N"
  TGI: "> 100 µM"
- Compound: "C=CCCCCOC1C=CC(O)C(CO)O1 (stereo unspecified)"
  TGI: "> 100 µM"
- Compound: "Cc1cn(-c2ccc(S(C)(=O)=O)cc2)c(-c2ccc(Cl)cc2)n1"
  TGI: "> 100 µM"

Which value of TGI has been reported for CCOC(=O)Cc1cnc(NC(NC(=O)CC)(C(F)(F)F)C(F)(F)F)s1 in the records?
> 100 µM

Which value of TGI has been reported for O=c1oc2ccc(-c3ccc(F)cc3F)cc2c(=O)n1-c1ccc(Cl)c(C(F)(F)F)c1 in the records?
7.54 µM

----------
Tested on: MDA-MB-231 breast
Test: NCI tumour cell line growth inhibition, 48 h
Assay Endpoint: GI50

See these solved cases before continuing.
- Compound: "CCOC(=O)c1ccc2c(c1)[n+](=O)c(C(C)=O)c(C(F)(F)F)n2[O-]"
  GI50: "1750 nM"
- Compound: "Cc1ccc(-c2nc([P+](c3ccccc3)(c3ccccc3)c3ccccc3)c(Nc3ccccc3)o2)cc1"
  GI50: "728 nM"
- Compound: "O=C(Nc1cc(Oc2cc(F)c(NC(=O)C3(C(=O)Nc4ccc(F)cc4)CC3)cc2F)ccn1)C1CC1"
  GI50: "2430 nM"

Which value of GI50 has been reported for CCCCCCCC(=O)OCC(=O)[C@]1(O)Cc2c(O)c3c(c(O)c2[C@@H](OC2CC(N)C(O)C(C)O2)C1)C(=O)c1c(OC)cccc1C3=O (some centres undefined) in the records?
578 nM

----------
System: T-47D breast
Test: NCI tumour cell line growth inhibition, 48 h
The molecules listed here are annotated with their TGI.

See these solved cases before continuing.
- Molecule: "O=C(Nc1sccc1S(=O)(=O)c1ccccc1)c1ccccc1"
  TGI: "> 100 µM"
- Molecule: "COC1CCC(=O)N1CN(C(C)=O)c1ccc(C)cc1 (stereo not given)"
  TGI: "> 100 µM"

Which value of TGI has been reported for O=S(=O)(/N=C(\NO)Nc1ccc(Cl)cc1)c1ccccc1 in the records?
> 83.3 µM

Which value of TGI has been reported for CCOC(=O)Cc1cnc(NC(NC(=O)CC)(C(F)(F)F)C(F)(F)F)s1 in the records?
> 100 µM

Which value of TGI has been reported for CC(=O)C(=[N+]=[N-])C(=O)N(C)CCC#N in the records?
> 10 µM

----------
System: NCI-H226 lung
Test: NCI tumour cell line growth inhibition, 48 h
Assay Endpoint: GI50

See these solved cases before continuing.
- Line Notation: "Nc1nc(N)c2cc(Sc3cccc(C(F)(F)F)c3)ccc2n1"
  GI50: "2.34 µM"
- Line Notation: "Nc1nc(=O)n([C@@H]2CS[C@H](CO)O2)cc1F"
  GI50: "> 100 µM"
- Line Notation: "COc1ccccc1NS(=O)(=O)c1ccc2oc(SC(C)C)nc2c1"
  GI50: "10.3 µM"

Which value of GI50 has been reported for O=C(N/N=C/c1cc(Cl)cc(Cl)c1[O-])c1ccccc1.O=C(N/N=C/c1cc(Cl)cc(Cl)c1[O-])c1ccccc1.[Co+2] in the records?
26.5 µM

Which value of GI50 has been reported for COc1cc2c(=O)n(CCN(C)C)c3c4cc5c(cc4ccc3c2cc1OC)OCO5 in the records?
0.512 µM

Which value of GI50 has been reported for C=C1C(=O)O[C@H]2[C@H]1CC/C(COC(=O)NCCc1c[nH]c3ccc(Cl)cc13)=C\CC[C@@]1(C)O[C@@H]21 in the records?
1.92 µM

----------
System: COLO 205 colon
Test: NCI tumour cell line growth inhibition, 48 h
Assay Endpoint: TGI (µM)
The reply should be a number in µM, with the unit left off.

See these solved cases before continuing.
- Line Notation: "COc1cc(NCCN=C(N)NC(N)=NC(C)C)c2ncccc2c1"
  Display Unit: "µM"
  TGI: 7.95
- Line Notation: "C=C(C)C(=O)O[C@@H]1C/C(C)=C\\[C@H](OC(C)=O)C[C@](C)(O)/C=C2/OC(=O)C(COC(C)=O)=C21"
  Display Unit: "µM"
  TGI: 2.37

Could you now consider this next compound?
Which value of TGI has been reported for C#CCN(C(=O)C(F)(F)F)c1ccc(C(=O)c2ccc(N(CC#C)C(=O)C(F)(F)F)cc2)cc1 in the records?
92.5
